src = patent US9029337B2

Test system: human Factor 7 mRNA
Assay: Dose-dependent antisense inhibition of human Factor 7 in HepB3 cells, lipofectin
Type: cell-based
Conditions: 100 nM, HepB3 cells, approx. 16 hours (Table 14)
Protocol: Cells were plated at a density of 4,000 cells per well and treated with lipofectin reagent with 3.125 nM, 6.25 nM, 12.5 nM, 25 nM, 50 nM, and 100 nM concentrations of antisense oligonucleotide, as indicated in Table 3. After a treatment period of approximately 16 hours, RNA was isolated from the cells and Factor 7 mRNA levels were measured by real-time RT-PCR, as described herein. […] Factor 7 mRNA levels were adjusted according to total RNA content as measured by RIBOGREEN®. […]
Strand notation (5' to 3'): a small letter for the sugar, then the base; units joined by * are phosphorothioate-linked, units joined directly phosphodiester-linked; [ ] holds rarer units or linkages, { } end groups; capitals alone tell only the bases. e = 2'-O-(2-methoxyethyl) (MOE); [5mC] = 5-methylcytosine; d = 2'-deoxy (DNA)
measurement_kind: percent inhibition of Factor 7 mRNA, relative to untreated control cells

[
  {
    "substance": "422130 (antisense eG*e[5mC]*e[5mC]*eT*eG*dA*dG*dG*d[5mC]*d[5mC]*dA*dG*d[5mC]*dA*dG*eA*eT*e[5mC]*eA*e[5mC]) [compound 422130]",
    "result_value": "85%"
  },
  {
    "substance": "422087 (antisense e[5mC]*eA*eT*eG*e[5mC]*dA*dT*dG*dG*dT*dG*dA*dT*dG*d[5mC]*eT*eT*e[5mC]*eT*eG) [compound 422087]",
    "result_value": "90%"
  },
  {
    "substance": "422150 (antisense eG*e[5mC]*eA*dT*dG*dG*dT*dG*dA*dT*dG*d[5mC]*dT*dT*d[5mC]*dT*dG*eA*eA*eT) [compound 422150]",
    "result_value": "87%"
  },
  {
    "substance": "422294 (antisense eG*eA*dG*dT*dT*d[5mC]*dT*dG*d[5mC]*dA*dG*dG*dA*dG*d[5mC]*eG*eG*e[5mC]*e[5mC]*eT) [compound 422294]",
    "result_value": "84%"
  },
  {
    "substance": "422086 (antisense eT*eG*e[5mC]*eA*eT*dG*dG*dT*dG*dA*dT*dG*d[5mC]*dT*dT*e[5mC]*eT*eG*eA*eA) [compound 422086]",
    "result_value": "90%"
  },
  {
    "substance": "407935 (antisense eA*eT*eG*e[5mC]*eA*dT*dG*dG*dT*dG*dA*dT*dG*d[5mC]*dT*eT*e[5mC]*eT*eG*eA) [compound 407935]",
    "result_value": "87%"
  }
]

----------
System: human Factor 7 mRNA
Assay: Antisense inhibition of human Factor 7 with short (14-mer) oligonucleotides in HepB3 cells, electroporation 1,000 nM
Format: cell-based
Settings: electroporation, 1,000 nM antisense oligonucleotide, approximately 24 hours, Factor 7 mRNA relative to untreated control cells
Strand notation (5' to 3'): a small letter for the sugar, then the base; units joined by * are phosphorothioate-linked, units joined directly phosphodiester-linked; [ ] holds rarer units or linkages, { } end groups; capitals alone tell only the bases. e = 2'-O-(2-methoxyethyl) (MOE); [5mC] = 5-methylcytosine; d = 2'-deoxy (DNA)
Mark class 0 for % Inhibition values under 50%, and class 1 for everything at or above.

[
  {
    "substance": "435810 (antisense e[5mC]*eT*dG*dA*dG*dG*dG*dA*dA*dT*dG*dT*eT*eG) [compound 435810]",
    "label": "class 0"
  },
  {
    "substance": "435478 (antisense eG*eA*dG*dG*d[5mC]*dA*d[5mC]*dA*d[5mC]*dT*dG*dG*eT*e[5mC]) [compound 435478]",
    "label": "class 0"
  },
  {
    "substance": "435716 (antisense eT*eT*dT*dT*dG*d[5mC]*dA*dG*d[5mC]*d[5mC]*dA*d[5mC]*eT*e[5mC]) [compound 435716]",
    "label": "class 0"
  },
  {
    "substance": "435842 (antisense eA*eT*dT*dT*d[5mC]*d[5mC]*d[5mC]*dA*dT*dT*dG*dG*e[5mC]*eA) [compound 435842]",
    "label": "class 0"
  },
  {
    "substance": "435768 (antisense eG*e[5mC]*d[5mC]*dT*dG*dG*dA*dT*dG*d[5mC]*dT*dG*eG*eT) [compound 435768]",
    "label": "class 1"
  },
  {
    "substance": "435770 (antisense e[5mC]*eT*d[5mC]*dT*dG*dA*dG*dA*dG*dG*d[5mC]*d[5mC]*e[5mC]*e[5mC]) [compound 435770]",
    "label": "class 1"
  },
  {
    "substance": "407939 (antisense eT*eG*e[5mC]*eA*eG*d[5mC]*d[5mC]*d[5mC]*dG*dG*d[5mC]*dA*d[5mC]*d[5mC]*d[5mC]*eA*eG*e[5mC]*eG*eA) [compound 407939]",
    "label": "class 1"
  },
  {
    "substance": "435656 (antisense eA*e[5mC]*dT*dG*d[5mC]*dT*d[5mC]*dA*d[5mC]*dA*dG*d[5mC]*e[5mC]*eG) [compound 435656]",
    "label": "class 1"
  },
  {
    "substance": "435723 (antisense eG*e[5mC]*d[5mC]*dA*dG*d[5mC]*dA*dG*dA*dT*d[5mC]*dA*e[5mC]*eG) [compound 435723]",
    "label": "class 1"
  },
  {
    "substance": "435479 (antisense e[5mC]*eA*d[5mC]*dT*d[5mC]*d[5mC]*d[5mC]*d[5mC]*dT*dT*dT*dG*eG*eG) [compound 435479]",
    "label": "class 0"
  },
  {
    "substance": "435697 (antisense eA*eG*dT*dA*dG*d[5mC]*d[5mC]*dG*dG*d[5mC]*dA*d[5mC]*eA*eG) [compound 435697]",
    "label": "class 1"
  }
]
